Tested on: MCF7 breast
assay method text: NCI-60 one-dose screen, 48 h
cond: 10 µM unless noted
About 83,000 compounds went through this panel and 20% of them were active in at least one assay; those are over-represented in the sample as a whole. Active and inactive are the calls of the source. How the source made its calls: active means growth percent below 10; inactive means the rest.
# valid calls are active, inactive; nothing else

Solved entries:
[[record]]
compound = "CN(CCCCCCCCNc1ccnc2ccccc12)Cc1ccc(-c2ccc(-c3ccc(C#N)cc3)s2)cc1"
label_class = "active"

[[record]]
compound = "Nc1ccc(-c2cc3c(Nc4ccc(OCc5cccc(F)c5)c(Cl)c4)ncnc3s2)cc1"
label_class = "inactive"

[[record]]
compound = "COc1cc(C(=O)Nc2cc(O)c(CC=C(C)C)c(O)c2)cc2c1O[C@]1(C)CC[C@@H](O)C(C)(C)[C@H]1C2"
label_class = "active"

[[record]]
compound = "CCC(=O)OC1=C(C)SC2=NC(c3ccc(Cl)c(Cl)c3)=CC(c3cc(OC)c(OC)c(OC)c3)N21 (stereo not given)"
label_class = "inactive"

[[record]]
compound = "CCCCCCNC(=O)c1cc(NCc2cc(O)ccc2O)ccc1O"
label_class = "inactive"

[[record]]
compound = "O=[N+]([O-])c1ccccc1C(O)Cc1ccc2ccccc2n1 (stereo not given)"
label_class = "inactive"

[[record]]
compound = "O=C1CC(c2ccc3c(c2)OCO3)Nc2cc3c(cc21)OCO3 (stereo not given)"
label_class = "inactive"

[[record]]
compound = "CCOC(=O)N1CCc2c(sc3c2C(=O)N[C@H](c2ccc(OC)cc2)N3)C1"
label_class = "inactive"


// outcome(item) with item = Cc1c(C(=O)O[C@H]2[C@@H]3[C@H](C)CC[C@H]3[C@]3(C)O[C@@]2(C2CCCCC2)C[C@H]3OC(=O)CO)ccc2ccccc12
active

---

Tested on: MDA-MB-231 breast
assay method text: NCI-60 one-dose screen, 48 h (100 = growth as untreated, 0 = no growth, -100 = all killed)
cond: 10 µM unless noted
This is part of a sample that, as a whole, favours compounds with a hit. Of some 83,000 tested, about 20% had one in any assay.
Checkbox rule: growth lower than 70% = criterion met; growth not lower than 70% = criterion not met.

[[record]]
chem_smiles = "CCOc1ccc(S(=O)(=O)c2ccc(C)cc2)c2c1no[n+]2[O-]"
label_class = "criterion not met"


Now consider the entry below.
Decide: growth of NC(N)=N/N=C(/c1ccccc1)c1ccc(N)cc1 strictly below 70%?
criterion not met

---

Test system: HCT-116 colon
assay method text: NCI-60 one-dose screen, 48 h
cond: 10 µM unless noted
About 83,000 compounds went through this panel and 20% of them were active in at least one assay; those are over-represented in the sample as a whole. Active and inactive are the calls of the source. Rule for the calls: active = growth percent below 10; inactive = the rest.
# valid calls are y (active), n (inactive); nothing else

Solved entries:
[[record]]
compound = "O=C1c2ccccc2C2(c3ccc(O)cc3)c3ccccc3Oc3cccc1c32 (stereo not drawn)"
label_class = "n"

[[record]]
compound = "COc1ccc(C(=O)/C=C/C23c4ccccc4C(c4ccccc42)C2C(=O)NC(=O)C23)cc1 (stereo not drawn)"
label_class = "n"

[[record]]
compound = "O=C(/C=C/C12c3ccccc3C(c3ccccc31)C1C(=O)NC(=O)C12)c1ccccc1 (stereo not drawn)"
label_class = "n"

[[record]]
compound = "CC(C)c1ccc(NC(=O)Cc2ccc(Nc3ncnc4cc(-c5cnn(CCN(C)C)c5)ccc34)cc2)cc1"
label_class = "y"


// outcome(item) with item = Cc1[nH]c(-c2nc3ccccc3[nH]2)c(C)c1C(=O)NNc1ccc(Cl)cc1
n

// outcome(item) with item = O=C(NCOC(O)C(Cl)(Cl)Cl)NCOC(O)C(Cl)(Cl)Cl (stereo not drawn)
n

// outcome(item) with item = CC(C)OC(=O)NNC(=O)c1ccncc1
n

// outcome(item) with item = CN1CCN(CCCOc2ccc3nc(Nc4cc(Cl)cc(Cl)c4)ccc3c2)CC1
y

// outcome(item) with item = CN1C(=O)CCC(N2C(=O)c3cccc(NCCOCCOCCNC(=O)c4cc5c(o4)C(=O)c4ccccc4C5=O)c3C2=O)C1=O (stereo not drawn)
y

// outcome(item) with item = Cl.Fc1c[c-]c(-c2ccccn2)c(F)c1.[Pt].c1ccc(P(c2ccccc2)C([PH+](c2ccccc2)c2ccccc2)[PH+](c2ccccc2)c2ccccc2)cc1
y

// outcome(item) with item = c1ccc2[nH]c(SSc3nc4ncncc4[nH]3)nc2c1
n

// outcome(item) with item = COc1ccc(CN2C(=O)/C(=C\c3cc(OC)c(OC)c(OC)c3)c3ccccc32)cc1
y

// outcome(item) with item = CNCCNc1nc2ccccc2c2c(=O)c3cc(F)ccc3oc12
n

---

Tested on: M14 melanoma
assay method text: NCI-60 one-dose screen, 48 h (100 = growth as untreated, 0 = no growth, -100 = all killed)
cond: 10 µM unless noted
This is part of a sample that, as a whole, favours compounds with a hit. Of some 83,000 tested, about 20% had one in any assay.
Measured growth, listed per entry.
Your answer is read as %, so omit the unit and give the number.

[[record]]
compound = "N=C(N)c1ccc(-c2ccc(-c3ccc(Cl)c(Cl)c3)o2)nc1"
measured_property = "growth"
reported_result = -51.8

[[record]]
compound = "CC(C)n1nc(C#Cc2cccc(O)c2)c2c(N)ncnc21"
measured_property = "growth"
reported_result = -63.8

[[record]]
compound = "CN1C[C@@H](c2ccc(Cl)cc2)[C@]2(NC(=S)N(c3ccc(F)c(Cl)c3)C2=O)[C@@]12C(=O)NC1C=CC(Cl)=C[C@H]12 (some centres undefined)"
measured_property = "growth"
reported_result = -31.2

[[record]]
compound = "CN1C(=O)CCC(N2C(=O)c3cccc(NCCOCCOCCNC(=O)c4cc5c(o4)C(=O)c4ccccc4C5=O)c3C2=O)C1=O (centres undefined)"
measured_property = "growth"
reported_result = -67.2

[[record]]
compound = "CN(C)c1ccc(/C=N/NC(=O)COc2cc(=O)n(C)c3ccccc23)cc1"
measured_property = "growth"
reported_result = 101

[[record]]
compound = "CCCCN1CCN(c2ccc3nc(-c4ccc5nc(-c6ccc(OCC)c(OCC)c6)[nH]c5c4)[nH]c3c2)CC1"
measured_property = "growth"
reported_result = -28

[[record]]
compound = "N=C(N)c1ccc(-c2ccc(-c3ccc(Cl)cc3Cl)o2)cc1"
measured_property = "growth"
reported_result = 8.85

[[record]]
compound = "CC(/C=N/NC(=O)c1cc(-c2ccco2)[nH]n1)=C\\c1ccccc1"
measured_property = "growth"
reported_result = 95


Please find the next compound below.
Record request: growth value, item COc1cc(-c2ccc(-c3ccc(C(=N)N)nc3)s2)cc(OC)c1OC
43.1

---

System: OVCAR-3 ovarian
assay method text: NCI-60 one-dose screen, 48 h (100 = growth as untreated, 0 = no growth, -100 = all killed)
cond: 10 µM unless noted
This is part of a sample that, as a whole, favours compounds with a hit. Of some 83,000 tested, about 20% had one in any assay. The source made the active and inactive calls. How the source made its calls: active means growth percent below 10; inactive means the rest.
measured property: growth

Consider the following illustrative entries.
[[record]]
molecule = "N#C/C(=C\\c1ccc2c(c1)OCO2)n1nnc2ccccc21"
reported_result = "-69% (active)"

[[record]]
molecule = "N=c1ccn2c(n1)OC1C(O)C(CO)OC12 (stereo not given)"
reported_result = "67.1% (inactive)"

[[record]]
molecule = "CCNCCNc1cc(-c2cccc(C(F)(F)F)c2)c(C#N)c2nc3ccccc3n12"
reported_result = "-86.7% (active)"

[[record]]
molecule = "COc1ccc(C(=O)/C=C/C23c4ccccc4C(c4ccccc42)C2C(=O)NC(=O)C23)cc1 (stereo not given)"
reported_result = "95.9% (inactive)"

[[record]]
molecule = "Cc1ccc2c(n1)C(=O)C(Oc1ccc(F)cc1)=CC2=O"
reported_result = "73.2% (inactive)"


Please find the next molecule below.
Record request: growth value, item O=C(/C=C/C12c3ccccc3C(c3ccccc31)C1C(=O)N(c3ccccc3)C(=O)C12)c1ccccc1 (stereo not given)
-61.9% (active)

---

Test system: IGROV1 ovarian
assay method text: NCI-60 one-dose screen, 48 h
cond: 10 µM unless noted
The panel holds about 83,000 compounds, 20% with a hit somewhere; the sample as a whole holds those more often. Calls of active or inactive are those of the source. How the source made its calls: active means growth percent below 10; inactive means the rest.
# valid calls are active, inactive; nothing else

Solved entries:
[[record]]
compound = "Cc1nc2ccc(C(=O)NCc3cc(C(=O)O)c(C)o3)cc2nc1C"
label_class = "inactive"

[[record]]
compound = "O=C1CSC(c2ccccc2O)N1c1nnc(Cn2cnnc2)o1 (stereo not given)"
label_class = "inactive"

[[record]]
compound = "COc1ccc(-c2nc3ccccn3c2/C=C/C(=O)c2cc(OC)c(OC)c(OC)c2)cc1"
label_class = "inactive"

[[record]]
compound = "O=C(CC12CC3CC(CC(C3)C1)C2)NCCOCCOCCOCCNC(=O)c1cc2c(o1)C(=O)c1ccccc1C2=O"
label_class = "active"


// outcome(item) with item = N#C/C(=C\c1ccc2c(c1)OCO2)n1nnc2ccccc21
active

// outcome(item) with item = O=[N+]([O-])c1ccc(-c2cc3c(Nc4ccc(Cl)c(C(F)(F)F)c4)ncnc3s2)cc1
inactive

// outcome(item) with item = CCOC(=O)Cc1csc2nc(-c3ccccc3)nn12
inactive

// outcome(item) with item = COc1ccc(C2CC(c3cnccn3)=NN2)cc1OC (stereo not given)
inactive

// outcome(item) with item = Cc1ccc(-n2nnc(C3=NCCc4c3[nH]c3ccc(Cl)cc43)c2C)cc1
inactive

// outcome(item) with item = COc1cc(/C=C/c2nc(Nc3ccc(S(=O)(=O)Nc4cc(C)on4)cc3)c3ccccc3n2)ccc1O
inactive

// provenance: PubChem BioAssay (NCI)
